test-method-notes: Multi-component pharmacokinetic study of GQD, GQD-GC and single herb extracts in rats (plasma, LC/MS/MS)
Format: in vivo, Sprague-Dawley rats
run-parameters: male, Sprague-Dawley, rat, plasma, po, 18.9 g/kg, GQD group: rats, oral GQD extract 18.9 g/kg, plasma; read-out: AUClast
metric-name: AUC(0-t)

A selection of reference data follows.
O=C(O)[C@H]1O[C@@H](Oc2cc3oc(-c4ccccc4)cc(=O)c3c(O)c2O)[C@H](O)[C@@H](O)[C@@H]1O [Compound 17, baicalin] | 22300 ng·h/mL
O=c1c(-c2ccc(O)cc2)coc2c(C3OC(COC4OCC(O)(CO)C4O)C(O)C(O)C3O)c(O)cc(O)c12 (stereo not drawn) [Compound 6] | 98.8 ng·h/mL
O=c1c(-c2ccc(O)cc2)coc2c([C@@H]3O[C@H](CO)[C@@H](O)[C@H](O)[C@H]3O)c(O)ccc12 [Compound 7, puerarin] | 8610 ng·h/mL

Give the measured AUC(0-t) of COc1ccc(-c2coc3c(C4OC(COC5OCC(O)(CO)C5O)C(O)C(O)C4O)c(O)ccc3c2=O)cc1 (stereo not drawn) [Compound 5] . 168 ng·h/mL

Give the measured AUC(0-t) of COc1c(O)c(O[C@@H]2O[C@H](C(=O)O)[C@@H](O)[C@H](O)[C@H]2O)cc2oc(-c3ccccc3)cc(=O)c12 [Compound 38, lateriflorein 7-O-glucuronide] . 700 ng·h/mL

Give the measured AUC(0-t) of O=c1cc(-c2ccccc2)oc2cc(O)c(O)c(O)c12 [Compound 12, baicalein] . 108 ng·h/mL

Give the measured AUC(0-t) of COc1c(O)cc(OC2OC(CO)C(O)C(O)C2O)c2c(=O)cc(-c3ccccc3)oc12 (stereo not drawn) [Compound 13, wogonin 5-O-glucoside] . 53 ng·h/mL

Give the measured AUC(0-t) of O=c1c(-c2ccc(O)cc2)coc2cc(O[C@@H]3O[C@H](CO)[C@@H](O)[C@H](O)[C@H]3O)cc(O)c12 [Compound 4, genistin] . 72.6 ng·h/mL

Give the measured AUC(0-t) of CC1(C)[C@@H](O[C@H]2O[C@H](C(=O)O)[C@@H](O)[C@H](O)[C@H]2O[C@@H]2O[C@H](C(=O)O)[C@@H](O)[C@H](O)[C@H]2O)CC[C@]2(C)[C@H]3C(=O)C=C4[C@@H]5C[C@@](C)(C(=O)O)CC[C@]5(C)CC[C@@]4(C)[C@]3(C)CC[C@@H]12 [Compound 36, glycyrrhizic acid] . 871 ng·h/mL

Give the measured AUC(0-t) of COc1cc2c(cc1OC)-c1cc3ccc4c(c3c[n+]1CC2)OCO4 [Compound 22, epiberberine] . 29.4 ng·h/mL

Give the measured AUC(0-t) of COc1ccc(-c2coc3cc(O[C@@H]4O[C@H](CO)[C@@H](O)[C@H](O)[C@H]4O)ccc3c2=O)cc1 [Compound 39, ononin] . 500 ng·h/mL

Give the measured AUC(0-t) of COc1cc2c(cc1O)CC[n+]1cc3c(OC)c(OC)ccc3cc1-2 [Compound 23, jatrorrhizine] . 195 ng·h/mL
